# Test system: IL-23
# Experiment: IL-23 production (ELISA) in LPS-stimulated THP-1 cells, 2,4-D versus other chalcones, Example 2
# Assay type: cell-based, human
# Assay conditions: Homo sapiens; LPS-stimulated THP-1, 24 h; read-out: IC50 of inhibition of IL-23
Parameter measured: IC50

COc1cc(O)c(OC)c(O)c1C(=O)/C=C/c1ccccc1 [naturally isolated 2,4-D, 2′,4′-dihydroxy-3′,6′-dimethoxychalcone] on IL-23 gives IC50 = ~2.1 µM

Each recorded value in this set is attributed to patent US20240335395A1.
